Source listed as the supplement of paper PMC10567573.

B1: STX5 (parent)
chain: ESTIVELGSIFQQLAHMVKEQEET

Variants of: B1
test_description: protein stability index of a GFP-peptide fusion (GPS, HEK-293T) (PSI 1-6); higher = more stable;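 note: lentivirally expressed fusions sorted by FACS into six bins by GFP to DsRed ratio, PSI derived from sequencing read proportions per bin multiplied by bin number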
condition_context: c terminus: a fixed tail appended
Listed here: items and their measured protein stability index.
// return a plain number; no unit text

Solved cases (7 shown):
- EMTIVELGSIFQQLAHMVKEQEET [S2M]: 1
- ESTIVELGSIFQQLAHMVMEQEET [K19M]: 1.9
- ESTIVELGSIFQQLAHDVKEQEET [M17D]: 4.11
- ESTIVELGSIFQQLANMVKEQEET [H16N]: 1.97
- ESTIVELGSIFQQLAHHVKEQEET [M17H]: 3.7
- ESTIVELGSIFQWLAHMVKEQEET [Q13W]: 1.88
- ESTIVELGSIFQQLAHMVKEQEEW [T24W]: 2.89

Ask: Query: protein stability index; subject: ESTIVELNSIFQQLAHMVKEQEET [G8N]
Reply: 2.44
